Data provenance: PubChem BioAssay

z-score values for the molecules below.
- Test Details: modulators of S6 phosphorylation in cells, primary screen, cell-based, A549, cytoblot, luminescence, serum-stimulated (AID 1158);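 further: serum-stimulated A549 lung adenocarcinoma cells; signal is phosphorylated S6 detected by cytoblot immunostaining with HRP secondary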
- Measurement Parameters: A549 phospho-S6 cytoblot, 5 h, higher = more signal
Quick one: just the number, no unit, thanks!

The cases that follow already have their z-score on record.
INSERT INTO assay_data (molecule, recorded_value) VALUES
  ('CO[C@@H]1C=CCC(=O)N[C@@H](C)C(=O)OC[C@@H](NS(=O)(=O)c2ccc(C)cc2)[C@H](C)C=CCC(=O)OC[C@H]1C', -0.327),
  ('COCCNC(=O)OCC1CCCC2(CC(OC(=O)NCc3cccc4ccccc34)CC(CCC(=O)N[C@@H](C)C(=O)OC)O2)O1 (stereo partly specified)', -0.582),
  ('COc1ccc(COC(=O)NN=C2C[C@@H](O)[C@@H](O)[C@@H]3[C@@H]4C(=O)N(C[C@@H]5CCCO5)C(=O)[C@@H]4CC[C@@H]23)cc1', -0.0088),
  ('C#CCCCON=C1[C@H]2CCn3c(=O)n([C@@H](CC)c4ccccc4)c(=O)n3[C@H]2[C@H](O)[C@@H]2O[C@H]12', 1.09),
  ('C[C@@H]1CC[C@H]2C(=O)OC(Cc3ccccc3)CN2[C@H]1c1ccc(Br)cc1 (stereo partly specified)', -0.0843);

Attention now shifts to the item below.
(Q) Query (molecule): `C=CC[C@@H]1C=C[C@H](ON=C[C@@H](NS(=O)(=O)c2ccc(C)cc2)[C@H](C)C=CCC(=O)OC)[C@@H](CO)O1` ; field requested: z-score
(A) -0.738

====

- Test Details: small-molecule microarray binders of probe aLefty2, primary screen, biochemical, biotinylated probe, 635/667 nm fluorescence (AID 1094);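 further: score merges spot fluorescence near 667 nm with spot signal-to-noise ratio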
- Measurement Parameters: higher = more signal
Use fulfilled when the recorded composite z-score is no lower than -0.1; use not fulfilled when it is lower.

Use these answered entries as a reference point.
INSERT INTO results (smiles_repr, label_class) VALUES
  ('COC(=O)[C@H](Cc1ccccc1)NC(=O)[C@@H](C)CO', 'fulfilled'),
  ('COC(=O)CC=C[C@@H](C)[C@@H](C=NOC[C@@H](O)[C@H]1O[C@@H]2OC(C)(C)O[C@@H]2[C@H]1O)OC', 'not fulfilled'),
  ('CCN1C(=O)[C@H]2[C@@H]3C(=CC[C@H]2C1=O)C(=O)[C@H]1O[C@H]1[C@H]3O', 'not fulfilled');

(Q) Can `CCN1C(=O)[C@H]2[C@H]3[C@H](O)[C@H](O)CC(=NO[C@H](C)c4cn([C@@H]5COC[C@H]5O)nn4)[C@@H]3CC[C@H]2C1=O` be said to have composite z-score at or above -0.1?
(A) not fulfilled

(Q) Can `CC(C)C(=O)N[C@H]1CCCN1C(=O)C=Cc1ccccc1` be said to have composite z-score at or above -0.1?
(A) fulfilled

====

- Test Details: A549 cell viability effects, profiling panel, calcein-AM fluorescence, 48 h, basal (AID 1162); further: test concentration not given here
- Measurement Parameters: higher = more signal
Property: z-score
Please state the value as a number alone, without comment.

Consider the worked cases shown below.
INSERT INTO results (smiles_repr, recorded_value) VALUES
  ('COc1ccc(COC(=O)NN=C2C[C@@H](O)[C@@H](O)[C@@H]3[C@@H]4C(=O)N(C[C@@H]5CCCO5)C(=O)[C@@H]4CC[C@H]23)cc1', 0.0369),
  ('CCO[C@H](c1cc(OC)cc([N+](=O)[O-])c1OC)[C@H](C)[C@@H](OC)[C@H](C)C=CCC(=O)OC', 0.207);

Now examine the next entry.
(Q) For the molecule shown here, `CCc1cc2c(nc1CC)CCN(CCC(C)=NOCC[C@@H]1C=C[C@H](OC(C)=O)[C@@H](COC(C)=O)O1)C2` , give the reported z-score.
(A) 0.34

====

- Test Details: adipocyte viability effects, profiling panel, cell-based, 3T3-L1 adipocytes, calcein-AM fluorescence, 48 h, basal (AID 1163); further: test concentration not given here
- Measurement Parameters: 3T3-L1 adipocytes viability, higher = more signal
The reader will find reported z-score values listed item by item below.

INSERT INTO assay_data (molecule, property, recorded_value) VALUES
  ('CCN1C(=O)[C@H]2[C@H]3[C@H](O)[C@H](O)CC(=NNC(=O)OCc4ccccc4)[C@H]3CC[C@H]2C1=O', 'z-score', 0.888),
  ('CN1CCc2nc(-c3ccccc3)c(-c3ccccc3)cc2C1', 'z-score', 0.665),
  ('CCN1C(=O)[C@H]2[C@H]3[C@H](O)[C@H](O)CC(=NO[C@H](C)c4cn([C@H](CO)Cc5ccccc5)nn4)[C@@H]3CC[C@H]2C1=O', 'z-score', -0.922),
  ('CCOC(=O)[C@H](CC(C)C)NC(=O)CCC1CC(OC(=O)NCCc2ccc(F)cc2)CC2(CCCC(COC(=O)NCc3cccc(C(F)(F)F)c3)O2)O1 (stereo not given in full)', 'z-score', -0.289),
  ('CC(C)(C)N1C(=O)[C@H]2[C@H]3[C@H](O)[C@H](O)CC(=NNC(=O)OCc4ccccc4)[C@H]3CC[C@H]2C1=O', 'z-score', 1.11),
  ('CCOC(=O)CCN1C(=O)[C@H]2[C@H]3[C@H](O)[C@H](O)CC(=NNC(=O)OCC)[C@H]3CC[C@H]2C1=O', 'z-score', 0.895);

(Q) // z-score lookup, key: C[C@H]1CC[C@H]2C(=O)OC(COc3ccc(C(C)(C)C)cc3)CN2[C@@H]1c1ccc(Br)cc1 (stereo not given in full)
(A) 0.193

(Q) Data request, read-out z-score, for CCOC(=O)[C@H](CC(C)C)NC(=O)CCC1CC(OC(=O)NCCc2ccc(F)cc2)CC2(CCCC(COC(=O)NCc3cccc4ccccc34)O2)O1 (stereo not given in full)
(A) -0.679

(Q) State the recorded z-score for this entry: `CON=C(C)CCN1CCCc2nc(C)c(C)cc21`
(A) 0.542

(Q) Form field: reported z-score of `CC(C)CON=C1C[C@@H](O)[C@@H](O)[C@@H]2[C@@H]3C(=O)N(C(C)(C)C)C(=O)[C@@H]3CC[C@@H]12`
(A) 1.07

(Q) Given `CCN1C(=O)[C@H]2[C@H]3[C@H](O)[C@H](O)CC(=NOC[C@@H](O)[C@H]4O[C@@H]5OC(C)(C)O[C@@H]5[C@H]4O)[C@@H]3CC[C@H]2C1=O` , state its recorded z-score.
(A) -0.532

(Q) Entry `CC(C)[C@@H](OCc1ccccc1)[C@H](C)C=NOC[C@@H](O)[C@H]1O[C@@H]2OC(C)(C)O[C@@H]2[C@H]1O` : reported z-score = ?
(A) -0.132

(Q) z-score for `O=C1[C@H]2[C@H]3[C@H](O)[C@H](O)CC(=NOC[C@@H](O)COCc4ccco4)[C@@H]3CC[C@H]2C(=O)N1c1cccc(Oc2ccccc2)c1` ?
(A) -0.454

(Q) What value of measured z-score is listed for `CO[C@@H]1C=CCC(=O)N[C@@H](C)C(=O)OC[C@@H](OC)[C@H](C)C=CCC(=O)OC[C@H]1C` ?
(A) 0.374

====

- Test Details: small-molecule microarray binders of probe aXIP, primary screen, biochemical, NeuroSMM set, 635/667 nm fluorescence (AID 1119);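 further: probe is the protein aXip251-270 applied at 1 µg/mL to compound-printed slides; binding of probe to printed compounds measured as 667 nm fluorescence plus signal to noise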
- Measurement Parameters: higher = more signal, called active from +8 up or from −8 down
Property: composite Z-score
Answer with a bare number; do not write a unit.

Recorded results for 2 compounds are shown here.
INSERT INTO assay_data (compound, recorded_value) VALUES
  ('C#CCCCON=C1C[C@@H](O)[C@@H](O)[C@@H]2[C@@H]3C(=O)N(C4CCCCC4)C(=O)[C@@H]3CC[C@@H]12', 0.0436),
  ('CC(CCN1CCCc2nc(C)c(C)cc21)=NO[C@@H](C)c1cn([C@H](CO)Cc2ccccc2)nn1', 0.344);

(Q) State the recorded composite Z-score for this entry: CCOC(=O)[C@H](CC(C)C)NC(=O)CCC1CC(OC(=O)NCCc2ccc(F)cc2)CC2(CCCC(COC(=O)NCc3cccc(C(F)(F)F)c3)O2)O1 (stereo partly drawn)
(A) 1.35

====

- System: Lefty1
- Test Details: Lefty1 binders on small-molecule microarrays, primary screen, biochemical, small-molecule microarray, 635/667 nm fluorescence (AID 1139)
- Measurement Parameters: small-molecule microarray binding, fluorescence 635/667; higher = more signal
Property: composite z-score
Reply with the value as a number alone.

// below: answered molecules
INSERT INTO assay_data (molecule, property, recorded_value) VALUES
  ('CCOC(=O)[C@H](Cc1ccccc1)NC(=O)CCC1CC(OC(=O)NCCc2ccc(F)cc2)CC2(CCCC(COC(=O)NCCC(C)C)O2)O1 (stereo partly drawn)', 'composite z-score', 0.743),
  ('CC(C)=NO[C@H](C)c1cn([C@@H]2COC[C@H]2O)nn1', 'composite z-score', 0.718),
  ('CC(CCN1CCCc2nc(C)c(C)cc21)=NO[C@H](C)c1cn([C@@H]2COC[C@H]2O)nn1', 'composite z-score', 0.764);

(Q) composite z-score for `CC(CCN1CCCc2nc(C)c(C)cc21)=NO[C@H](C)c1cn([C@H](CO)Cc2ccccc2)nn1` ?
(A) 0.931

(Q) Can you share its composite z-score? I mean this molecule: `COc1ccc(O[C@H]2C=C[C@@H](c3ccccc3)O[C@@H]2COC(=O)CCC(C)=NOC[C@@H](O)COCc2ccco2)cc1`
(A) -1.58

(Q) Requested read-out: composite z-score. Entry: `COc1ccc(OC[C@@H](CO)OC)cc1`
(A) 0.356

(Q) Query (molecule): `COc1cccc([C@H](O)Cn2cc(-c3ccc(CON=C(C)C)cc3)nn2)c1` ; field requested: composite z-score
(A) -0.324

(Q) composite z-score for `CO[C@H]1COC(=O)CCC[C@H](C)[C@@H](OC)COC(=O)CC=C[C@@H]1C` ?
(A) 0.562

(Q) Find the recorded composite z-score belonging to Cc1cc2c(nc1C)CCCCN2CC(O)CN1CCCc2nc(-c3ccc(Br)cc3)ccc21 (stereo not drawn) and report it.
(A) 0.998
